pIC50: −log10 of the molar value.
This section presents pIC50 values reported for Somatostatin receptor type 3 (Homo sapiens) in the literature.

These recorded examples may help you get a feel for the data.
compound | endpoint_label | readout_value
C[C@@H](O)[C@@H]1NC(=O)[C@H](CCCCN)NC(=O)[C@H](Cc2c[nH]c3ccccc23)NC(=O)[C@H](Cc2ccc(N)cc2)NC(=O)[C@H](Cc2ccccc2)NC(=O)[C@@H](NC(=O)[C@H](Cc2ccc(O)c(I)c2)NC(N)=O)CSSC[C@@H](C(=O)O)NC(=O)[C@H](Cc2ccccc2)NC1=O | pIC50 | 6.49
CC(C)NCc1ccc(C[C@@H]2NC(=O)[C@@H](Cc3ccc4ccccc4c3)NC(=O)[C@H](Cc3ccccc3)NC(=O)[C@H](Cc3ccccc3)NC(=O)[C@H](CCCCN)N(C)C(=O)[C@@H](N)CSSC[C@@H](C(=O)O)NC(=O)[C@H](CO)NC(=O)[C@H]([C@@H](C)O)NC(=O)[C@H](Cc3ccccc3)NC(=O)[C@H]([C@@H](C)O)NC2=O)cc1 | pIC50 | < 6.00
C[C@@H](O)[C@@H]1NC(=O)[C@H](Cc2ccccc2)NC(=O)[C@H]([C@@H](C)O)NC(=O)[C@H](Cc2ccc(Nc3nnc(N)[nH]3)cc2)NC(=O)[C@@H](Cc2c[nH]c3ccccc23)NC(=O)[C@H](Cc2ccccc2)NC(=O)[C@H](Cc2ccccc2)NC(=O)[C@H](CCCCN)NC(=O)[C@@H](N)CSSC[C@@H](C(=O)O)NC(=O)[C@H](CO)NC1=O | pIC50 | < 5.00
CC(C)NCc1ccc(C[C@@H]2NC(=O)[C@@H](Cc3cn(Cc4ccccc4)cn3)NC(=O)[C@H](Cc3ccccc3)NC(=O)[C@H](Cc3ccccc3)NC(=O)[C@H](CCCCN)NC(=O)[C@@H](N)CSSC[C@@H](C(=O)O)NC(=O)[C@H](CO)NC(=O)[C@H]([C@@H](C)O)NC(=O)[C@H](Cc3ccccc3)NC(=O)[C@H]([C@@H](C)O)NC2=O)cc1 | pIC50 | < 6.00
CC(C)NCc1ccc(C[C@@H]2NC(=O)[C@@H](Cc3c[nH]c4ccccc34)NC(=O)[C@H](Cc3ccccc3)NC(=O)[C@H](Cc3ccccc3)NC(=O)[C@H](CCCCN)NC(=O)[C@@H](N)CSSC[C@@H](C(=O)N[C@@H](CCCCN)C(=O)O)N(C)C(=O)[C@H](CO)NC(=O)[C@H]([C@@H](C)O)NC(=O)[C@H](Cc3ccccc3)NC(=O)[C@H]([C@@H](C)O)NC2=O)cc1 | pIC50 | < 6.00

Tell me reported pIC50 for CC(C)NCc1ccc(C[C@@H]2NC(=O)[C@@H](Cc3c[nH]c4ccccc34)NC(=O)[C@@H]3CCC(=O)NCCCCC[C@@H](NC(=O)[C@H](Cc4ccccc4)NC(=O)[C@H]([C@@H](C)O)NC2=O)C(=O)N[C@@H](CO)C(=O)N[C@H](C(=O)O)CSSC[C@H](NC(=O)[C@@H](N)Cc2ccc(O)cc2)C(=O)N[C@@H](CCCCN)C(=O)N[C@@H](Cc2ccccc2)C(=O)N3)cc1 , tested with Somatostatin receptor type 3 (Homo sapiens). < 6.00

Tell me reported pIC50 for CN(C(=O)CO)[C@H]1NC(=O)[C@H](CCCCN)NC(=O)[C@@H](Cc2c[nH]c3ccccc23)NC(=O)[C@H](Cc2ccccc2)NC(=O)[C@H](Cc2ccccc2)NC(=O)[C@@H](N)CSSC[C@@H](C(=O)O)NC(=O)[C@H](Cc2ccccc2)NC1=O (stereo in doubt; 21) , tested with Somatostatin receptor type 3 (Homo sapiens). < 6.00

Tell me reported pIC50 for CC(C)NCc1ccc(C[C@@H]2NC(=O)[C@@H](Cc3ccc4ccccc4c3)NC(=O)[C@H](Cc3ccccc3)NC(=O)[C@H](Cc3ccccc3)NC(=O)[C@H](CCCCN)NC(=O)[C@@H](N)CSSC[C@@H](C(=O)O)NC(=O)[C@H](CO)N(C)C(=O)[C@H]([C@@H](C)O)NC(=O)[C@H](Cc3ccccc3)NC(=O)[C@H]([C@@H](C)O)NC2=O)cc1 , tested with Somatostatin receptor type 3 (Homo sapiens). < 6.00

Tell me reported pIC50 for CC(C)NCc1ccc(C[C@H]2C(=O)N[C@@H]([C@@H](C)O)C(=O)N[C@@H](Cc3ccc(O)c(I)c3)C(=O)N[C@H]3CCCCCCNC(=O)CC[C@H](NC(=O)[C@H](Cc4ccccc4)NC(=O)[C@H](CCCCN)NC(=O)[C@@H](N)CSSC[C@@H](C(=O)O)NC(=O)[C@H](CO)NC3=O)C(=O)N[C@H](Cc3c[nH]c4ccccc34)C(=O)N2C)cc1 , tested with Somatostatin receptor type 3 (Homo sapiens). < 6.00

###

This section presents IC50 values reported for Somatostatin receptor type 3 (Homo sapiens, UniProt P32745) in the literature.

molecule | readout_value
C[C@@H](O)[C@@H]1NC(=O)[C@H](CCCCN)NC(=O)[C@@H](Cc2c[nH]c3ccccc23)NC(=O)[C@H](Cc2ccccc2)NC(=O)[C@H](N(C)C(=O)c2ccccc2)NC(=O)[C@@H](N)CSSC[C@@H](C(=O)O)NC(=O)[C@H](Cc2ccccc2)NC1=O (stereo in doubt; 4) | > 10000 nM
CC(C)NCc1ccc(C[C@@H]2NC(=O)[C@@H](Cc3ccc4ccccc4c3)N(C)C(=O)[C@H](Cc3ccccc3)NC(=O)[C@H](Cc3ccccc3)NC(=O)[C@H](CCCCN)NC(=O)[C@@H](N)CSSC[C@@H](C(=O)O)NC(=O)[C@H](CO)NC(=O)[C@H]([C@@H](C)O)NC(=O)[C@H](Cc3ccccc3)NC(=O)[C@H]([C@@H](C)O)NC2=O)cc1 | > 1000 nM
C[C@@H](O)[C@@H]1NC(=O)[C@H](CCCCN)NC(=O)[C@@H](Cc2c[nH]c3ccccc23)NC(=O)[C@H](Cc2ccccc2)NC(=O)[C@@H](NC(=O)[C@H](N)Cc2ccccc2)C/C=C\C[C@@H](C(=O)N[C@H](CO)[C@@H](C)O)NC1=O | > 1000 nM

Tell me reported IC50 for CC(C)NCc1ccc(C[C@@H]2NC(=O)[C@H](N(C)C(=O)c3ccc4ccccc4c3)NC(=O)[C@H](Cc3ccccc3)NC(=O)[C@@H](NC(=O)[C@H](N)Cc3ccc(O)cc3)CSSC[C@@H](C(=O)N[C@H](C(N)=O)[C@@H](C)O)NC(=O)[C@H](Cc3ccccc3)NC2=O)cc1 , tested with Somatostatin receptor type 3 (Homo sapiens, UniProt P32745). > 1000 nM
